- target_entity: IL-23 (human, p19/p40 heterodimer) (Homo sapiens) (UniProt Q9NPF7+P29460)
- Sequence (Q9NPF7 20-189, chain 1 of 2): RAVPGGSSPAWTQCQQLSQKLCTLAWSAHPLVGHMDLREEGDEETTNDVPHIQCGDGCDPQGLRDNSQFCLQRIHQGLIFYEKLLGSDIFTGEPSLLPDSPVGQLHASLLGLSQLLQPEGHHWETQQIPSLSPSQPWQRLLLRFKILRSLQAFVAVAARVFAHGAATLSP
- Sequence (P29460 23-328, chain 2 of 2): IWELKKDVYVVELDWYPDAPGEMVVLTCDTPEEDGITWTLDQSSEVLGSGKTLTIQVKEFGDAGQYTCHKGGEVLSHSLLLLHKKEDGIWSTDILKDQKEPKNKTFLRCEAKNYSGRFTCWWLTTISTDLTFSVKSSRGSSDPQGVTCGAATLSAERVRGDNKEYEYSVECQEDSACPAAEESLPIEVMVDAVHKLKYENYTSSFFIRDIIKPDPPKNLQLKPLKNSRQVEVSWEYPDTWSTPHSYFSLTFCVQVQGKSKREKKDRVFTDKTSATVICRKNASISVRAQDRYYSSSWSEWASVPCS
- protocol_summary: filter
- experimental_context: deoxy A,G; 2'-OMe C,U; dI at G24,G25; 3'-idT [24,25]; DPBS Ca Mg
endpoint: Kd (nM)
Give bare numbers, in nM.

Task: Supply measured Kd of ACAGGCAAGUAAUUGGGGAGUGCGGGCGGGGUGU [ARC1608] in your reply.
Output: 9.7

* * *

- target_entity: IL-23 (human, p19/p40 heterodimer) (Homo sapiens) (UniProt Q9NPF7+P29460)
- protocol_summary: filter
- experimental_context: deoxy A,G; 2'-OMe C,U; dI at G31; 3'-idT [dI at 31 (G parent); 2'-OMe C/U at 2,6,10,13,14,21,23,27,32,34; other A,G deoxy; 3'-inverted dT at 35]; DPBS Ca Mg
endpoint: Kd
// return the numeric value with its unit appended

Task: Supply measured Kd of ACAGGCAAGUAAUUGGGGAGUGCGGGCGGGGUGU [ARC1614] in your reply.
Output: 1.7 nM
